Entry source: patent US20180168208A1

- System tested: T1R1/T1R3 receptor (Felis catus)
- Experiment: cell-based
- Type: cell-based
- Reported conditions: +IMP (0.2 mM); Table 18
Parameter: Max resp % of Ala +IMP. Scope: all listed entries.

CSc1ccc(-c2nnn(Cc3ccccn3)n2)cc1    80.7 % of Ala
CCC(CC)NC(=O)c1ccc(OC)c(OC)c1 [3,4-dimethoxy-N-(pentan-3-yl)benzamide]    81.0 % of Ala
CCCC(CCC)C(=O)Nc1ccc2c(c1)OCO2    108.0 % of Ala

Short answer for COc1ccc(C(=O)NC(C)c2ccccc2)cc1C (stereo not shown) : Max resp % of Ala +IMP was 95.6 % of Ala
